Overview of reported pKi across a group of compounds:
Target: GABA-A receptor; alpha-1/beta-3/gamma-2 (Homo sapiens, UniProt P14867+P18507+P28472)
Sequence (P14867 whole entry): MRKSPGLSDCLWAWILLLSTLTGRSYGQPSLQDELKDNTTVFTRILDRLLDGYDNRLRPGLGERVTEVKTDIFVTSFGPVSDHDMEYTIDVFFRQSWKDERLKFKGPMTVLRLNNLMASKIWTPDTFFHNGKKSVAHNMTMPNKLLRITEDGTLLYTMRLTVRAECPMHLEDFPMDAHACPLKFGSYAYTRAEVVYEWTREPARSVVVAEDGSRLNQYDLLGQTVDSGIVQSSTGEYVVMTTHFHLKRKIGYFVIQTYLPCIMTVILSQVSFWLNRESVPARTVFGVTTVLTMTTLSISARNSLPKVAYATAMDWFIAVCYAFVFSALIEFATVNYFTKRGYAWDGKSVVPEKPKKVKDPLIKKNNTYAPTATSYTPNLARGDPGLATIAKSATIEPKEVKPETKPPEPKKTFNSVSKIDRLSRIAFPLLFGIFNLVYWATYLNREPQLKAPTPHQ
Sequence (P18507 whole entry): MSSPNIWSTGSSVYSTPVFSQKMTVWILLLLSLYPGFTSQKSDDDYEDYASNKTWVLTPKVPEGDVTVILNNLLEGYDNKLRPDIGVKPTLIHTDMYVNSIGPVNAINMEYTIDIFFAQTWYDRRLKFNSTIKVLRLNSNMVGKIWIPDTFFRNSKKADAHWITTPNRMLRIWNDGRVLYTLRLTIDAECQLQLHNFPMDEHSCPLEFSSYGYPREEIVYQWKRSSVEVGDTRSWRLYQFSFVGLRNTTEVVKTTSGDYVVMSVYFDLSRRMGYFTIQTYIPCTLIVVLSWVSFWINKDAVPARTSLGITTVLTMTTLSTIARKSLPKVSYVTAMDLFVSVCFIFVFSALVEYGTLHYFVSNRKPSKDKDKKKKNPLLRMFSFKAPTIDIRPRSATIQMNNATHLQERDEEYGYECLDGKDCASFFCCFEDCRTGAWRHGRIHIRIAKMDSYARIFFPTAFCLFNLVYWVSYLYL
Sequence (P28472 whole entry): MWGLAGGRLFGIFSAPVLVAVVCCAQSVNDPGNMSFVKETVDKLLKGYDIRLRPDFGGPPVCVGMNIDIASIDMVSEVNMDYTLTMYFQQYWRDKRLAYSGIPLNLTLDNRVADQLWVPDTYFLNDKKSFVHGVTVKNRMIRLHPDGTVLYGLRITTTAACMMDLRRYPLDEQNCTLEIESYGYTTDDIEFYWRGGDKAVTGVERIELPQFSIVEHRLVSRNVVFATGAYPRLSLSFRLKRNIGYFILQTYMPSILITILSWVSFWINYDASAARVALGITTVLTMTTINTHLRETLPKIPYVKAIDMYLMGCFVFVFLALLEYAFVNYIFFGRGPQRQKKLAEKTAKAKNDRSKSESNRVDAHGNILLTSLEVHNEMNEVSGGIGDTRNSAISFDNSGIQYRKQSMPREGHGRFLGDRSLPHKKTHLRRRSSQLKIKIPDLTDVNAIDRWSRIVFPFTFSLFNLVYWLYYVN
Assay: Antagonist activity at human GABAA alpha-1-beta-3-gamma-2S expressed in Xenopus oocytes by two-electrode voltage-clamp electrophysiology
Type: functional, cell-based, Oocyte
Settings: read-out: Ki
Friendly reminder that pKi comes from taking -log10 of the concentration in mol/L.

Use the examples below as a reference point.
Query: Tell me its pKi given Br.Oc1noc(C2CCNCC2)c1-c1ccccc1Cl as the entry.
Reply: 6.89

Query: Respond only with pKi recorded for Oc1noc(C2CCNCC2)c1-c1ccccc1
Reply: 6.80

Query: Look up and state reported pKi for Br.Oc1noc(C2CCNCC2)c1-c1cccnc1
Reply: 6.37

Further cases:
Query: Write down pKi measured for item Br.Oc1noc(C2CCNCC2)c1-c1ccc(-c2ccccc2)cc1
Reply: 7.15

====

Species: Rattus norvegicus
Experiment: Displacement of [3H]GABA from GABAB receptor in Sprague-Dawley rat brain synaptic membrane at 100 uM
Active and inactive are the calls of the source. The rule behind the calls is not given here.
PARAMETER: Activity

Recorded Activity, per entry:
Query: Report Activity, nothing else, for this molecule: Oc1noc(C2CCNCC2)c1-c1ccccc1
Reply: inactive

Query: Respond only with Activity recorded for Oc1noc(C2CCNCC2)c1-c1ccc2ccccc2c1
Reply: inactive

Query: Output measured Activity for this item: Oc1noc(C2CCNCC2)c1Cc1ccc2ccccc2c1-c1ccccc1
Reply: inactive

Query: Determine from records and report Activity for Br.Oc1noc(C2CCNCC2)c1-c1cccnc1
Reply: inactive

Query: Look up and report measured Activity for this entry: Oc1cc(C2CCNCC2)on1
Reply: inactive

Others:
Query: Consider the molecule Br.O=[N+]([O-])c1cccc(-c2c(O)noc2C2CCNCC2)c1 . State its measured Activity.
Reply: inactive

Query: Report Activity, nothing else, for this molecule: Br.CC(C)(C)c1ccc(-c2c(O)noc2C2CCNCC2)cc1
Reply: inactive

Query: Query Activity for Br.Oc1noc(C2CCNCC2)c1-c1csc(-c2ccccc2)c1
Reply: inactive

Query: Please supply the value of reported Activity for the item Oc1noc(C2CCNCC2)c1Cc1ccc2ccccc2c1
Reply: inactive

Query: Write down Activity measured for item Br.Br.Nc1cccc(-c2c(O)noc2C2CCNCC2)c1
Reply: inactive

Query: Check the records and state Activity for Br.Oc1noc(C2CCNCC2)c1-c1ccc(Cl)cc1
Reply: inactive

Query: Please look at this molecule and report its Activity: Br.Oc1noc(C2CCNCC2)c1-c1ccsc1
Reply: inactive

====

Reported Log Ki by item:
Test: Displacement of [3H]muscimol from GABAA receptor in Sprague-Dawley rat brain synaptic membrane
The answer should be a number; do not append a unit.

Query: Name the recorded Log Ki of the compound listed here: Br.Br.Nc1cccc(-c2c(O)noc2C2CCNCC2)c1
Reply: -7.07

Query: Name the recorded Log Ki of the compound listed here: Br.Oc1noc(C2CCNCC2)c1-c1ccsc1
Reply: -6.5

Query: Identify the reported Log Ki for the following entry. Br.Oc1noc(C2CCNCC2)c1-c1cccc(Cl)c1
Reply: -7.24

---
Query: Read the entry Br.Oc1noc(C2CCNCC2)c1-c1ccccc1Cl and write its reported Log Ki.
Reply: -6.07

Query: Quote Log Ki reported for Br.Oc1noc(C2CCNCC2)c1-c1cccnc1 please.
Reply: -6.02

Query: Fill in Log Ki for record Br.Oc1noc(C2CCNCC2)c1-c1ccc(Cl)cc1
Reply: -5.62

Query: Note Log Ki for the compound shown: Br.Oc1noc(C2CCNCC2)c1-c1cccc(-c2ccccc2)c1
Reply: -8

====

Molecular target: GABA-A receptor; alpha-1/beta-3/gamma-2 (Homo sapiens, UniProt P14867+P18507+P28472)
Assay: Antagonist activity at human GABAA alpha-1-beta-3-gamma-2S expressed in Xenopus oocytes by two-electrode voltage-clamp electrophysiology
Format: functional, cell-based, Oocyte
Conditions: read-out: Ki
pKi: −log10 of the molar value.
# if value of pKi reaches 7, tag Yes; if it stays below, tag No

Query: Evaluate O=c1[nH]oc(C2CCNCC2)c1-c1cccc2ccccc12 : pKi at minimum 7?
Reply: No

Query: Does the reported pKi for Br.Oc1noc(C2CCNCC2)c1-c1ccc(Cl)cc1 fall at or above the 7 mark?
Reply: No

Query: Threshold query (pKi >= 7) on Br.Br.Nc1cccc(-c2c(O)noc2C2CCNCC2)c1
Reply: Yes

Next:
Query: Hi team, for Oc1noc(C2CCNCC2)c1Cc1ccc2ccccc2c1-c1ccccc1 , is the recorded pKi at or above 7?
Reply: No

====

Test: Displacement of [3H]muscimol from GABAA receptor in Sprague-Dawley rat brain synaptic membrane
As shown below, each of these molecules has a reported pKi value.
API: returns pKi as number; meaning -log10 of concentration in mol/L.

Before answering, review these 3 worked examples.
Query: Tell me pKi reported for Oc1noc(C2CCNCC2)c1Cc1ccc2ccccc2c1-c1ccccc1
Reply: 7.68

Query: For the molecule Br.Oc1noc(C2CCNCC2)c1-c1cc(Cl)cc(Cl)c1 , give its reported pKi.
Reply: 7.11

Query: Assign pKi to the following record: Br.Oc1noc(C2CCNCC2)c1-c1cccnc1
Reply: 6.02

Further cases:
Query: Give the value of pKi reported for the following: Br.Oc1noc(C2CCNCC2)c1-c1cccc(-c2ccccc2)c1
Reply: 8.00

Query: Give reported pKi value for Br.Oc1noc(C2CCNCC2)c1-c1ccc(-c2ccccc2)cc1
Reply: 6.71

Query: # return recorded pKi for input Br.Oc1noc(C2CCNCC2)c1-c1ccc(Oc2ccccc2)cc1
Reply: 7.15

Query: Let me know recorded pKi for Br.CC(C)(C)c1ccc(-c2c(O)noc2C2CCNCC2)cc1 , thanks.
Reply: 5.16

Query: // Input: Br.O=[N+]([O-])c1cccc(-c2c(O)noc2C2CCNCC2)c1 . Output its pKi only.
Reply: 6.63

Query: Dear colleague, please send me the reported pKi for Br.Oc1noc(C2CCNCC2)c1-c1cccc(Cl)c1 when you can.
Reply: 7.24

Query: Provide only the value of recorded pKi for Br.Oc1noc(C2CCNCC2)c1-c1ccc(Cl)cc1
Reply: 5.62

====

Assay: Displacement of [3H]muscimol from GABAA receptor in Sprague-Dawley rat brain synaptic membrane
# maps each entry to its Log Ki
Would you mind answering with just the numeric figure?

Worked examples, 2 molecules total:
Query: Give a short answer stating reported Log Ki for Br.CC(C)(C)c1ccc(-c2c(O)noc2C2CCNCC2)cc1 .
Reply: -5.16

Query: Input Br.Oc1noc(C2CCNCC2)c1-c1csc(-c2ccccc2)c1 , output reported Log Ki.
Reply: -7.61

Now consider a different molecule.
Query: Read off the recorded Log Ki for Br.Oc1noc(C2CCNCC2)c1-c1cc(Cl)cc(Cl)c1
Reply: -7.11

====

Target: GABA-A receptor; alpha-1/beta-3/gamma-2 (Homo sapiens, UniProt P14867+P18507+P28472)
Assay: Antagonist activity at human GABAA alpha-1-beta-3-gamma-2S expressed in Xenopus oocytes by two-electrode voltage-clamp electrophysiology
Type: functional, cell-based, Oocyte
Conditions: read-out: Ki
pKi: −log10 of the molar value.
Classify as follows. Reported pKi greater than or equal to 7: label 1. Reported pKi below: label 0.

Query: I'd appreciate it if you could say whether Br.Oc1noc(C2CCNCC2)c1-c1ccc(Oc2ccccc2)cc1 has pKi at least equal to 7.
Reply: label 1

Query: Please check the record Br.Oc1noc(C2CCNCC2)c1-c1cccc(-c2ccccc2)c1 and state if its pKi is at or above 7.
Reply: label 1

Query: Given the entry Br.CC(C)(C)c1ccc(-c2c(O)noc2C2CCNCC2)cc1 , answer whether its pKi meets or surpasses 7.
Reply: label 0

Query: Check if pKi >= 7 (inclusive). Item: Br.Oc1noc(C2CCNCC2)c1-c1cccc(Cl)c1
Reply: label 1

Query: Is reported pKi greater than or equal to 7 here: Br.Oc1noc(C2CCNCC2)c1-c1csc(-c2ccccc2)c1
Reply: label 1

====

Assay: Displacement of [3H]muscimol from GABAA receptor in Sprague-Dawley rat brain synaptic membrane
As shown below, each of these molecules has a reported Ki value.
# number only, unit nM dropped from output

Query: Identify measured Ki corresponding to Br.Oc1noc(C2CCNCC2)c1-c1ccccc1Cl
Reply: 851

Query: State its Ki for this molecule: Br.Oc1noc(C2CCNCC2)c1-c1ccsc1
Reply: 317

====

Reported Log Ki values for the following compounds.
Assay: Displacement of [3H]muscimol from GABAA receptor in Sprague-Dawley rat brain synaptic membrane
Reply: number alone, nothing else.

// solved cases for Log Ki follow
Query: Input Br.O=[N+]([O-])c1cccc(-c2c(O)noc2C2CCNCC2)c1 , output reported Log Ki.
Reply: -6.63

Query: Report Log Ki, nothing else, for this compound: Br.Oc1noc(C2CCNCC2)c1-c1ccc(-c2ccccc2)cc1
Reply: -6.71

Kindly consider the entry below.
Query: Entry Br.Oc1noc(C2CCNCC2)c1-c1ccc(Oc2ccccc2)cc1 needs its Log Ki filled in; supply it.
Reply: -7.15

Data provenance: ChEMBL document CHEMBL1143013
